- System: MCF7
- procedure-summary: Growth inhibition of human MCF7 cells after 48 hrs
- Assay type: functional
- setup-conditions: MCF7, 48 h

test-smiles	GI50
O=C1N[C@H]2[C@H](O)[C@H](O)[C@@H](O)[C@H](O)[C@@H]2c2cc3c(c(O)c21)OCO3	0.023 µg/mL
O=C1N[C@@H]2C(=C[C@H](O)[C@@H](O)[C@H]2O)c2cc3c(c(O)c21)OCO3	0.0032 µg/mL
CC(=O)O[C@@H]1[C@@H](OC(C)=O)[C@H](O)[C@@]2(O)c3cc4c(c(O)c3C(=O)N[C@H]2[C@@H]1OC(C)=O)OCO4	> 10 µg/mL
CC(=O)Oc1c2c(cc3c1C(=O)N[C@H]1[C@H](OC(C)=O)[C@H](OC(C)=O)[C@@H](OC(C)=O)[C@H](O)[C@@]31O)OCO2	5.2 µg/mL
COC(=O)C(=O)Oc1c2c(cc3c1C(=O)N(C(=O)C(=O)OC)[C@H]1[C@H](OC(C)=O)[C@H](OC(C)=O)[C@@H](OC(C)=O)[C@H](OC(C)=O)[C@@]31OC(=O)C(=O)OC)OCO2	> 10 µg/mL
CC(=O)O[C@H]1[C@@H](OC(C)=O)[C@@H]2NC(=O)c3c(cc4c(c3O)OCO4)[C@@]23OC(=O)O[C@H]3[C@@H]1OC(C)=O	4.9 µg/mL
